Assay: Clearance in CD-1 mouse at 1 mg/kg, iv measured upto 8 hrs by LC-MS/MS method
Assay type: ADME, organism-based
Conditions: in vivo
OUTCOME MEASURE: clearance (mL/min/kg)

INSERT INTO assay_data (query_smiles, outcome_measure, output_unit, recorded_number) VALUES
  ('C[C@@H]1OCC2(CCN(c3cnc4nc(Sc5ccnc(N)c5Cl)ccc4n3)CC2)[C@@H]1N', 'clearance', 'mL/min/kg', 34.3),
  ('Nc1nccc(Sc2ccc3nc(N4CCC5(CC4)Cc4ncccc4[C@H]5N)cnc3n2)c1Cl', 'clearance', 'mL/min/kg', 19.2);

====

Assay: Metabolic stability in human liver microsome assessed as intrinsic clearance at […] preincubated for 5 mins followed by NADPH addition and measured after 20 mins by LC-MS analysis
Format: ADME
Details: liver microsomes, dose 2.5 µM, time 25 min, read-out: CLH
OUTCOME MEASURE: CLint scaled at […] (mL/min/kg)

INSERT INTO assay_data (query_smiles, output_unit, recorded_number) VALUES
  ('CC1(N)CCN(c2cnc3nc(-c4cccc5ccccc45)ccc3n2)CC1', 'mL/min/kg', 3),
  ('CC1(N)CCN(c2cnc3nc(Sc4ccnc(N)c4Cl)ccc3n2)CC1', 'mL/min/kg', 3),
  ('COc1nccc(Sc2ccc3nc(N4CCC(C)(N)CC4)cnc3n2)c1Cl', 'mL/min/kg', 6),
  ('CC1(CN)CCN(c2cnc3nc(Sc4ccnc(N)c4Cl)ccc3n2)CC1', 'mL/min/kg', 5),
  ('COc1cnc2c(c1)[C@@H](N)C1(CCN(c3cnc4nc(Sc5ccnc(N)c5Cl)ccc4n3)CC1)C2', 'mL/min/kg', 7),
  ('Cc1ccc2c(c1)[C@@H](N)C1(CCN(c3cnc4nc(Sc5ccnc(N)c5Cl)ccc4n3)CC1)C2', 'mL/min/kg', 6),
  ('CNC1(C)CCN(c2cnc3nc(Sc4ccnc(N)c4Cl)ccc3n2)CC1', 'mL/min/kg', 3);

====

// values below are reported CLint scaled at […]
Experiment: Metabolic stability in human liver microsome assessed as intrinsic clearance at […] preincubated for 5 mins followed by NADPH addition and measured after 20 mins by LC-MS analysis
Format: ADME
Settings: liver microsomes, dose 2.5 µM, time 25 min, read-out: CLH
OUTCOME MEASURE: CLint scaled at […] (mL/min/kg)

INSERT INTO assay_data (query_smiles, recorded_number) VALUES
  ('Nc1nccc(Sc2ccc3nc(N4C[C@H]5C[C@@H](C4)[C@H]5N)cnc3n2)c1Cl', 4),
  ('Nc1nccc(Sc2ccc3nc(N4CCC[C@H](N)CC4)cnc3n2)c1Cl', 4),
  ('C[C@@H]1OCC2(CCN(c3cnc4nc(Sc5ccnc(N)c5Cl)ccc4n3)CC2)[C@@H]1N', 3),
  ('CC1(N)CCN(c2cnc3nc(Sc4cccc(C#N)c4Cl)ccc3n2)CC1', 9),
  ('Nc1nccc(Sc2ccc3nc(N4CCC5(CC4)Cc4ccccc4[C@H]5N)cnc3n2)c1Cl', 8);

====

Test: Oral bioavailability in CD-1 mouse at 10 mg/kg measured upto 24 hrs by LC-MS/MS method
Type: ADME, organism-based
Settings: in vivo
// values below are reported bioavailability
OUTCOME MEASURE: bioavailability (%)

INSERT INTO assay_data (query_smiles, outcome_measure, output_unit, recorded_number) VALUES
  ('Nc1nccc(Sc2ccc3nc(N4CCC5(CC4)Cc4ncccc4[C@H]5N)cnc3n2)c1Cl', 'bioavailability', '%', 66.5),
  ('C[C@@H]1OCC2(CCN(c3cnc4nc(Sc5ccnc(N)c5Cl)ccc4n3)CC2)[C@@H]1N', 'bioavailability', '%', 58.1);

====

Biological target: Mitogen-activated protein kinase; ERK1/ERK2 (Homo sapiens, UniProt P27361+P28482)
Experiment: Inhibition of ERK1/2 phosphorylation at Thr202/Tyr204 residues in human KYSE520 cells incubated for 1 hrs by Western blot analysis
Type: cell-based
Values of IC50 strictly less than 700 nM map to fulfilled, and values of at least 700 nM map to not fulfilled.

INSERT INTO results (molecule, class_name) VALUES
  ('Nc1nccc(Sc2ccc3nc(N4C[C@H]5C[C@@H](C4)[C@H]5N)cnc3n2)c1Cl', 'fulfilled'),
  ('CC1(N)CCN(c2cnc3nc(Sc4cccc(C#N)c4Cl)ccc3n2)CC1', 'not fulfilled'),
  ('Nc1nccc(Sc2ccc3nc(N4CCC5(CC4)Cc4ccccc4[C@H]5N)cnc3n2)c1Cl', 'fulfilled'),
  ('COc1cnc2c(c1)[C@@H](N)C1(CCN(c3cnc4nc(Sc5ccnc(N)c5Cl)ccc4n3)CC1)C2', 'fulfilled'),
  ('COc1cccc(Sc2ccc3nc(N4CCC(C)(N)CC4)cnc3n2)c1Cl', 'not fulfilled'),
  ('Nc1nccc(Sc2ccc3nc(N4CCC5(CC4)Cc4cc(F)ccc4[C@H]5N)cnc3n2)c1Cl', 'fulfilled'),
  ('Nc1nccc(Sc2ccc3nc(N4CCC5(CC4)Cc4ncccc4[C@H]5N)cnc3n2)c1Cl', 'fulfilled'),
  ('CNC1(C)CCN(c2cnc3nc(Sc4ccnc(N)c4Cl)ccc3n2)CC1', 'fulfilled'),
  ('Nc1nccc(Sc2ccc3nc(N4[C@H]5CC[C@H]4CC(N)C5)cnc3n2)c1Cl (stereo partly drawn)', 'fulfilled'),
  ('CC1(N)CCN(c2cnc3nc(Sc4cccn5nccc45)ccc3n2)CC1', 'not fulfilled'),
  ('COc1nccc(Sc2ccc3nc(N4CCC(C)(N)CC4)cnc3n2)c1Cl', 'fulfilled'),
  ('CC1(N)CCN(c2cnc3nc(-c4cccc5ccccc45)ccc3n2)CC1', 'fulfilled'),
  ('CC1(N)CCN(c2cnc3nc(-c4cccc(F)c4Cl)ccc3n2)CC1', 'not fulfilled'),
  ('Nc1nccc(Sc2ccc3nc(N4CCC5(CC4)Cc4ncc(F)cc4[C@H]5N)cnc3n2)c1Cl', 'fulfilled'),
  ('CC1(N)CCN(c2ccnc3c(Sc4cccc(Cl)c4Cl)cnn23)CC1', 'not fulfilled'),
  ('CC1(N)CCN(c2cnc3nc(-c4cccc(Cl)c4Cl)ccc3n2)CC1', 'fulfilled'),
  ('Cc1ccc2c(n1)CC1(CCN(c3cnc4nc(Sc5ccnc(N)c5Cl)ccc4n3)CC1)[C@@H]2N', 'fulfilled'),
  ('CC1(N)CCN(c2ccc(Sc3cccc(Cl)c3Cl)n3nccc23)CC1', 'not fulfilled'),
  ('Nc1nccc(Sc2ccc3nc(N4CCC[C@H](N)CC4)cnc3n2)c1Cl', 'fulfilled'),
  ('C[C@@H]1OCC2(CCN(c3cnc4nc(Sc5ccnc(N)c5Cl)ccc4n3)CC2)[C@@H]1N', 'fulfilled'),
  ('Nc1nccc(Sc2ccc3nc(N4CCC5(CC4)Cc4cc(Cl)ccc4[C@H]5N)cnc3n2)c1Cl', 'fulfilled'),
  ('CC1(N)CCN(c2cnc(-c3cccc(Cl)c3Cl)c(N)n2)CC1', 'fulfilled'),
  ('CC1(N)CCN(c2cnc3c(cnn3-c3cccc(Cl)c3Cl)n2)CC1', 'not fulfilled'),
  ('CC1(N)CCN(c2ncc(Sc3cccc(Cl)c3Cl)n3nccc23)CC1', 'not fulfilled'),
  ('CC1(N)CCN(c2cnc3nc(Oc4cccc(Cl)c4Cl)ccc3n2)CC1', 'not fulfilled'),
  ('CC1(N)CCN(c2cnc3nc(Sc4ccnc(N)c4Cl)ccc3n2)CC1', 'fulfilled'),
  ('CC1(N)CCN(c2cnc3nc(Sc4cccc(Cl)c4Cl)ccc3n2)CC1', 'not fulfilled'),
  ('Nc1nccc(Sc2ccc3nc(N4CCC5(CC4)C[C@@H](O)C[C@H]5N)cnc3n2)c1Cl', 'fulfilled');

====

Test: Metabolic stability in mouse hepatocyte assessed as intrinsic clearance incubated for 1 to 2 hrs by LC-MS analysis
Type: ADME, cell-based
Conditions: hepatocytes, time 1-2 hrs, read-out: CLH
// values below are reported CLint scaled
OUTCOME MEASURE: CLint scaled

INSERT INTO measurements (compound, outcome_measure, result) VALUES
  ('Nc1nccc(Sc2ccc3nc(N4CCC5(CC4)Cc4ncccc4[C@H]5N)cnc3n2)c1Cl', 'CLint scaled', '28 mL/min/kg'),
  ('CC1(CN)CCN(c2cnc3nc(Sc4ccnc(N)c4Cl)ccc3n2)CC1', 'CLint scaled', '16 mL/min/kg'),
  ('Nc1nccc(Sc2ccc3nc(N4C[C@H]5C[C@@H](C4)[C@H]5N)cnc3n2)c1Cl', 'CLint scaled', '23 mL/min/kg'),
  ('Cc1ccc2c(n1)CC1(CCN(c3cnc4nc(Sc5ccnc(N)c5Cl)ccc4n3)CC1)[C@@H]2N', 'CLint scaled', '35 mL/min/kg'),
  ('Nc1nccc(Sc2ccc3nc(N4[C@H]5CC[C@H]4CC(N)C5)cnc3n2)c1Cl (some centres undefined)', 'CLint scaled', '17 mL/min/kg'),
  ('Nc1nccc(Sc2ccc3nc(N4CCC5(CC4)Cc4ccccc4[C@H]5N)cnc3n2)c1Cl', 'CLint scaled', '34 mL/min/kg'),
  ('CC1(N)CCN(c2cnc3nc(-c4cccc(Cl)c4Cl)ccc3n2)CC1', 'CLint scaled', '8 mL/min/kg'),
  ('CC1(N)CCN(c2cnc3nc(-c4cccc5ccccc45)ccc3n2)CC1', 'CLint scaled', '8 mL/min/kg'),
  ('Nc1nccc(Sc2ccc3nc(N4CCC5(CC4)C[C@@H](O)C[C@H]5N)cnc3n2)c1Cl', 'CLint scaled', '31 mL/min/kg'),
  ('COc1cnc2c(c1)[C@@H](N)C1(CCN(c3cnc4nc(Sc5ccnc(N)c5Cl)ccc4n3)CC1)C2', 'CLint scaled', '30 mL/min/kg'),
  ('COc1cccc(Sc2ccc3nc(N4CCC(C)(N)CC4)cnc3n2)c1Cl', 'CLint scaled', '45 mL/min/kg'),
  ('COc1nccc(Sc2ccc3nc(N4CCC(C)(N)CC4)cnc3n2)c1Cl', 'CLint scaled', '7 mL/min/kg'),
  ('C[C@@H]1OCC2(CCN(c3cnc4nc(Sc5ccnc(N)c5Cl)ccc4n3)CC2)[C@@H]1N', 'CLint scaled', '16 mL/min/kg'),
  ('Nc1nccc(Sc2ccc3nc(N4CCC5(CC4)Cc4ncc(F)cc4[C@H]5N)cnc3n2)c1Cl', 'CLint scaled', '26 mL/min/kg'),
  ('Cc1ccc2c(c1)[C@@H](N)C1(CCN(c3cnc4nc(Sc5ccnc(N)c5Cl)ccc4n3)CC1)C2', 'CLint scaled', '33 mL/min/kg'),
  ('CC1(N)CCN(c2cnc3nc(Sc4cccc(C#N)c4Cl)ccc3n2)CC1', 'CLint scaled', '12 mL/min/kg'),
  ('COc1ccc2c(c1)[C@@H](N)C1(CCN(c3cnc4nc(Sc5ccnc(N)c5Cl)ccc4n3)CC1)C2', 'CLint scaled', '33 mL/min/kg'),
  ('Nc1nccc(Sc2ccc3nc(N4CCC[C@H](N)CC4)cnc3n2)c1Cl', 'CLint scaled', '8 mL/min/kg'),
  ('CC1(N)CCN(c2cnc3nc(Sc4ccnc(N)c4Cl)ccc3n2)CC1', 'CLint scaled', '8 mL/min/kg');
